# systemTested: T1, mutant human CD20 #9 (N163D, N166D) (human, UniProt P11836 1-297)
# T1 construct: Stably expressed on MG87 cells
# T1 chain: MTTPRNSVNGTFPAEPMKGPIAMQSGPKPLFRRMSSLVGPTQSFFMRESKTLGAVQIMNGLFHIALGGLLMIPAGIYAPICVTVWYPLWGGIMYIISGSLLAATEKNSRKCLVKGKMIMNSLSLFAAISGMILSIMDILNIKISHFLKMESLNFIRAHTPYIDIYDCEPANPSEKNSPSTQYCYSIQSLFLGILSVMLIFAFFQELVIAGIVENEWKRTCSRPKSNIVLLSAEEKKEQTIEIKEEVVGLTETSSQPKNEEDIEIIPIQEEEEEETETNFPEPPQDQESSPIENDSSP
# procedureSummary: FACS, mutant-hCD20 MG87 cells; 100%=best antibody
What Percent of Binding to Mutant Human CD20 was measured for each of the following?
Please answer in the form of a number followed by its unit of measurement.

**Q:** Form field: reported Percent of Binding to Mutant Human CD20 of 6B9-4 (antibody, V domains shown, Fully human IgG, constant region not specified; also called 6B9-4N) VH: EEQLVESGGDLVQPGRSLRLSCAASGFTFHDYTMHWVRQAPGKGLEWVSGISWNSGSIGYADSVKGRFTISRDNAKNSLYLQMNSLRIEDTALYYCAKDPSYGSGSYYYYYGMDVWGQGTTVTVSS VL: EIVLTQSPATLSLSPGERATLSCRASQSVSSYLVWYQQRPGQAPRLLIYEASNRATGIPARFSGSGSGTDFTLTISSLESEDFAVYYCQQRSNWPLTFGGGTKVEIK
**A:** 3%

**Q:** Okay, and 9D4-7 (antibody, V domains shown, Fully human IgG, constant region not specified; also called 9D4-7N) VH: EVQLVESGGGLVQPGRSLRLSCAASGFTFYDYAMHWVRQAPGKGLEWVSGISWNSDTIGYADSVKGRFTISRDNAKNSLYLQMNSLRAEDTALYYCTKDGSYGHFYSGLDVWGQGTTVTVSS VL: EIVLTQSPATLSLSPGERATLSCRASQSVSSYLAWYQQKPGQAPRLLIYVASNRATGIPARFSGSGSGTDFTLTISSLEPDDFAVYYCQQRYYWPLTFGGGTKVEIK ?
**A:** 4%

**Q:** Okay, and 3H7-6 (antibody, V domains shown, Fully human IgG, constant region not specified; also called 3H7-6N) VH: EVQLVESGGGLVQPGRSLRLSCAASGFTFYDYAMHWVRQAPGKGLEWVSGISWNSGYIGYADSVKGRFTISRDNAKNSLYLQMNSLRAEDTALYYCAKDNSYGKFYYGLDVWGQGTTVTVSS VL: EIVMTQSPATLSVSPGERTTLSCRASQSVSSNLAWYLQKPGQAPRLLIYGASTRATGIPARFSGSGSGTEFILTISSLQSEDFAVYYCQQYNNWPITFGQGTRLEIK ?
**A:** 3%

**Q:** Okay, and 3B9-10 (antibody, V domains shown, Fully human IgG, constant region not specified; also called 3B9-10N) VH: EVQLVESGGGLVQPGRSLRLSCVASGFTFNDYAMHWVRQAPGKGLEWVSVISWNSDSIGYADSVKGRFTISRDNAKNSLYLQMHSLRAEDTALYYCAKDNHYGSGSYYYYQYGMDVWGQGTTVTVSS VL: EIVMTQSPATLSVSPGERATLSCRASQSVSSNLAWYQQKPGQAPRLLIYGTSTRATGIPARFSGSGSGTEFTLTISSLQSEDFAVYYCQQYNNWPLTFGGGTKVEIK ?
**A:** 4%

**Q:** Okay, and 9H4-12 (antibody, V domains shown, Fully human IgG, constant region not specified; also called 9H4-12N) VH: EVQLVESGGGLVQPGRSLRLSCAASGFTFDDYAMHWVRQVPGKGLEWVSGISWNSGSIGYADSVKGRFTISRDNAKNSLYLQMNSLRAEDTALYYCAKDMGYGNYYHYGMDVWGQGTTVTVSS VL: DIVLTQSPATLSLSPGERATLSCRASQSVSSYLAWYQQKPGQAPRLLICDASHRATRIPARFSGSGSGTDFTLTISSLEPEDFAVYYCQQRSNWPITFGQGTRLEIK ?
**A:** 4%

**Q:** Okay, and 8G6-5 (antibody, V domains shown, Fully human IgG, constant region not specified; also called 8G6-5N) VH: EVQLAESGGDLVQSGRSLRLSCAASGITFHDYAMHWVRQPPGKGLEWVSGISWNSDYIGYADSVKGRFTISRDNAKKSLYLQMNSLRPDDTALYYCVKDFHYGSGSNYGMDVWGQGTTVTVSP VL: EIVMTQSPATLSMSPGERATLSCRASQSVSRNLAWYQQKVGQAPRLLISGASTRATGIPARFSGSGSGTEFTLTINSLQSEDFAVYYCQQSNDWPLTFGQGTRLEIK ?
**A:** 4%

**Q:** Okay, and 9C11-14 (antibody, V domains shown, Fully human IgG, constant region not specified; also called 9C11-14N) VH: QVQLVESGGDSVKPGGSLRLSCAASGFTFSDSYMTWIRQAPGKGLEWVSFISSSGSTIYYADSVKGRFTISRDNVKKSLYLQMNRLRAEDTAVYYCAREEPGNYVYYGMDVWGQGTTVTVSS VL: EIVVTQSPATLSLSPGERATLSCRTSQTTTSYLAWYRQKPGQAPRLLIYDASNRAAGIPARFSGSGSGTDFTLTINSLEPEDFAVYYCQLRTNWITFGQGTRLEIK ?
**A:** 100%

**Q:** Okay, and 2F2 (antibody, V domains shown) VH: EVQLVESGGGLVQPGRSLRLSCAASGFTFNDYAMHWVRQAPGKGLEWVSTISWNSGSIGYADSVKGRFTISRDNAKKSLYLQMNSLRAEDTALYYCAKDIQYGNYYYGMDVWGQGTTVTVSS VL: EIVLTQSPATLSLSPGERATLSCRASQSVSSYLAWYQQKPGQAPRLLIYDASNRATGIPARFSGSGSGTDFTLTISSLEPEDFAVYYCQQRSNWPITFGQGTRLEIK ?
**A:** 4%
